# test: self-splicing fitness, log relative to wild type (ln ratio); higher = more splicing; Tetrahymena group I intron in knt gene, E. coli kanamycin selection, DiMSum; sequences stand for … in CUCUCU…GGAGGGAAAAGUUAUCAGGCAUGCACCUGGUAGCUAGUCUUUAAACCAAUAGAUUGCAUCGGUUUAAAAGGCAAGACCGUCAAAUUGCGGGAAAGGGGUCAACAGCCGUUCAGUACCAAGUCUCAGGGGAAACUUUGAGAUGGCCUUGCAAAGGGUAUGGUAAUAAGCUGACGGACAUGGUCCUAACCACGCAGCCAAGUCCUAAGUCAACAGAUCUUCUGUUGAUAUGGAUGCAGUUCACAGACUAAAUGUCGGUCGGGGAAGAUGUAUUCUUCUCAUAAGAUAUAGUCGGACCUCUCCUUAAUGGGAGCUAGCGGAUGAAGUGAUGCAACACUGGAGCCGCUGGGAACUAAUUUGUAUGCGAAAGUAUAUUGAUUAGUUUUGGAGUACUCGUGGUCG;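 further: selection with 25 µg/mL kanamycin versus none on LB agar overnight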
# particulars: 37 °C
A collection of sequences and their measured self-splicing fitness (ln)
assayEndpoint: self-splicing fitness (ln)

> print(dat)
         monomersequence  valueobserved
 1  CCAAAGCAAUAUUACGAACG         -0.168
 2  CGCAAGCAAUAUUACGAUCA        0.00155
 3  AAUCAGCAAUAUUACGUAGA         -0.124
 4  GAACAGCAAUAUUACGCAAU         -0.769
 5  UGUGAGCAAUAUUACGCAAU          -2.73
 6  GCGAAGCAAUAUUACGUUUG          -2.68
 7  GCAGAGCAAUAUUACGAGUG          -2.25
 8  UACUAGCAAUAUUACGAAUA         -0.474
 9  CCUCAGCAAUAUUACGCCCU          -2.73
10  CCCCAGCAAUAUUACGCAGU          -2.71
11  GCGAAGCAAUAUUACGGCCU          0.334
12  CCGGAGCAAUAUUACGACAU          -3.02
